tested on: LXRβ (Homo sapiens (Human), UniProt P55055)
Sequence (P55055 222-460): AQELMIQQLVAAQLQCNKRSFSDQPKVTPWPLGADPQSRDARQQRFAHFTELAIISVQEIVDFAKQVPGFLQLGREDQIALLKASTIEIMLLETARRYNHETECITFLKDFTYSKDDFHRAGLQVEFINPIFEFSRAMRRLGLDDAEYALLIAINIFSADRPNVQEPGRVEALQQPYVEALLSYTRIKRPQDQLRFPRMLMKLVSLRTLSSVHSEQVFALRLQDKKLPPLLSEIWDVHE
experiment: Nuclear hormone receptor selectivity assay (GAL4-NHR-LBD luciferase, HEK293)
condition notes: antagonist mode, reference agonist at EC80
endpoint name: IC50

Record O=C(O)[C@@H]1CC=C(c2nn(C(=O)c3c(Cl)cccc3C3(C(F)(F)F)CC3)c3c2CC[C@@H](C(=O)N2CCC4(COC4)C2)C3)CC1 . Reported IC50: > 10 µM

---

tested on: RARβ (Homo sapiens (Human), UniProt P10826)
Sequence (P10826 183-417, species assumed): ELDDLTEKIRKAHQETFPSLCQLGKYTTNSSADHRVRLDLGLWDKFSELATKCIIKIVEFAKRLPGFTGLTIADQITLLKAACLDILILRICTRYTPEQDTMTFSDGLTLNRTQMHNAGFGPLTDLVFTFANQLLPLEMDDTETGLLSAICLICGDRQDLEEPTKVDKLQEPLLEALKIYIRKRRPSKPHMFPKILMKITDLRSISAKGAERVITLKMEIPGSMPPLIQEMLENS
experiment: Nuclear hormone receptor selectivity assay (GAL4-NHR-LBD luciferase, HEK293)
condition notes: agonist mode
pEC50: −log10 of the molar value.
endpoint name: pEC50

pEC50 reported for this compound O=C(O)[C@@H]1CC=C(c2nn(C(=O)c3c(Cl)cccc3C3(C(F)(F)F)CC3)c3c2CC[C@@H](C(=O)N2CCC4(COC4)C2)C3)CC1 [Test Compound] : < 5.00

---

tested on: RARα (Homo sapiens (Human), UniProt P10276)
Sequence (P10276 183-417, species assumed): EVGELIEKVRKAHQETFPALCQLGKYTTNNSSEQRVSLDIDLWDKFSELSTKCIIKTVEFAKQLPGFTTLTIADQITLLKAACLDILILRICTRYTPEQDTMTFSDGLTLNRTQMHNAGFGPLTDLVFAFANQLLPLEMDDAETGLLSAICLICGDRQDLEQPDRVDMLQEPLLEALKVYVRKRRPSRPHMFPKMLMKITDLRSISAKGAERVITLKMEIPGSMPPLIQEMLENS
experiment: Nuclear hormone receptor selectivity assay (GAL4-NHR-LBD luciferase, HEK293)
condition notes: antagonist mode, reference agonist at EC80
Protocol: In the assay system used, an activated GAL4-nuclear hormone receptor (NHR) fusion construct binds to an upstream activation sequence (UAS) and drives a luciferase reporter gene. […] After 16-24 hours, luciferase activity was measured. […] The luciferase signal was measured on an Envision plate reader (Perkin Elmer) set to the ultra-sensitive luminescence setting.
endpoint name: IC50

GET /values?item= O=C(O)[C@@H]1CC=C(c2nn(C(=O)c3c(Cl)cccc3C3(C(F)(F)F)CC3)c3c2CC[C@@H](C(=O)N2CCC4(COC4)C2)C3)CC1 &system= RARα (Homo sapiens (Human), UniProt P10276) returns IC50: > 10 µM

---

tested on: RXRα (Homo sapiens (Human))
Sequence (P19793 227-458): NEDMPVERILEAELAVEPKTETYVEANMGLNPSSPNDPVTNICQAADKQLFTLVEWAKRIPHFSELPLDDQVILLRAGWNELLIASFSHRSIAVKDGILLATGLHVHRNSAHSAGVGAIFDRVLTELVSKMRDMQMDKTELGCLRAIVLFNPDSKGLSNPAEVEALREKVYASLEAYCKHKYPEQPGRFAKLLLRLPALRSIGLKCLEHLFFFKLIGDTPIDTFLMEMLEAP
experiment: Nuclear hormone receptor selectivity assay (GAL4-NHR-LBD luciferase, HEK293)
condition notes: agonist mode
Description: In the assay system used, an activated GAL4-nuclear hormone receptor (NHR) fusion construct binds to an upstream activation sequence (UAS) and drives a luciferase reporter gene. […] After 16-24 hours, luciferase activity was measured. […] The luciferase signal was measured on an Envision plate reader (Perkin Elmer) set to the ultra-sensitive luminescence setting.
pEC50: −log10 of the molar value.
endpoint name: pEC50

Query O=C(O)[C@@H]1CC=C(c2nn(C(=O)c3c(Cl)cccc3C3(C(F)(F)F)CC3)c3c2CC[C@@H](C(=O)N2CCC4(COC4)C2)C3)CC1 yields pEC50 of < 5.00

---

tested on: TRα (Homo sapiens (Human), UniProt P10827)
Sequence (P10827 other isoform, or with tags, fused parts or gaps isoform P10827-2): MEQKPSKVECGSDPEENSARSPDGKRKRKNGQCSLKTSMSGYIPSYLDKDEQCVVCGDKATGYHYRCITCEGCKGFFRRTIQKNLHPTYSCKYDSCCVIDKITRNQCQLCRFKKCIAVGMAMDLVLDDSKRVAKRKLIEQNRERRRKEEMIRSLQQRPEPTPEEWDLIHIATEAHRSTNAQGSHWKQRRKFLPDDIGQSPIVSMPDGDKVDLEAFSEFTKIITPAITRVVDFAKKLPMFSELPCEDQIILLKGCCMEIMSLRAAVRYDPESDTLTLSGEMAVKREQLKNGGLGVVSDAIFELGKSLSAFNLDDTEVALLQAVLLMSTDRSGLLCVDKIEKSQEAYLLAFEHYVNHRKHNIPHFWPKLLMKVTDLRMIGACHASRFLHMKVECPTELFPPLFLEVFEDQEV
experiment: Nuclear hormone receptor selectivity assay (GAL4-NHR-LBD luciferase, HEK293)
condition notes: agonist mode
pEC50: −log10 of the molar value.
endpoint name: pEC50

Per the record, O=C(O)[C@@H]1CC=C(c2nn(C(=O)c3c(Cl)cccc3C3(C(F)(F)F)CC3)c3c2CC[C@@H](C(=O)N2CCC4(COC4)C2)C3)CC1 has pEC50 of < 5.00

---

tested on: PPARγ (Homo sapiens (Human), UniProt P37231)
Sequence (P37231 238-503, species assumed): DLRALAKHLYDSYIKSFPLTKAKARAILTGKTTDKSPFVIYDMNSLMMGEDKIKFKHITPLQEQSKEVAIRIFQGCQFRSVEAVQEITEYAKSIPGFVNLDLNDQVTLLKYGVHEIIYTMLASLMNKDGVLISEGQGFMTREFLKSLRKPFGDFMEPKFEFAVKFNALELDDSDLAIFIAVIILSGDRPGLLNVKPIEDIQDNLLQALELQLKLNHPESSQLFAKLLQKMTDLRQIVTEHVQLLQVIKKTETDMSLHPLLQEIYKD
experiment: Nuclear hormone receptor selectivity assay (GAL4-NHR-LBD luciferase, HEK293)
condition notes: read-out: Agonist Mode EC50
endpoint name: pEC50
Formally, pEC50 is defined as -log10 of the concentration c, with c in mol/L.

What the record says about O=C(O)[C@@H]1CC=C(c2nn(C(=O)c3c(Cl)cccc3C3(C(F)(F)F)CC3)c3c2CC[C@@H](C(=O)N2CCC4(COC4)C2)C3)CC1 : pEC50 is 5.29
